Biological target: AII receptor (Bos taurus)
Construct: An AII receptor membrane fraction was prepared from bovine adrenal cortex; from tissue; host or cells: bovine adrenal cortex, membrane fraction
Sequence (P25104 whole entry): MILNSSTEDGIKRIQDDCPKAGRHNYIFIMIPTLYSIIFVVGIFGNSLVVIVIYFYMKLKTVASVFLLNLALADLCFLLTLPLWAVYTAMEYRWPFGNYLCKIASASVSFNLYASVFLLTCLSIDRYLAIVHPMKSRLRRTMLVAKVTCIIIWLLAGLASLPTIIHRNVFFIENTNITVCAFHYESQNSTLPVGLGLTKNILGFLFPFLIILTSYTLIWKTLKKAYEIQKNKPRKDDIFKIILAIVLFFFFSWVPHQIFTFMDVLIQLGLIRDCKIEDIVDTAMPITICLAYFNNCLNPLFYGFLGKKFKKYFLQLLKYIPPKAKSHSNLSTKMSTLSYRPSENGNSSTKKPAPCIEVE
Test: Inhibition of binding of 125I-angiotensin II to AII receptor membrane fraction
Settings: compound 10^-6 M; bovine adrenal cortex membrane fraction; 125I-AII; read-out: Binding-inhibitory action (rate) %
measure: inhibition at 1 µM (%)
# output: bare number, implied unit %

>>> numericreadout("CCCCc1nn(-c2ccccc2Cl)c(C(=O)O)c1Cc1ccc(-c2ccccc2-c2noc(=O)[nH]2)cc1 [compound 6]")
32
>>> numericreadout("CCCCc1n[nH]c(C(=O)O)c1Cc1ccc(-c2ccccc2-c2nc(=O)o[nH]2)cc1 [Working Example 2]")
68
>>> numericreadout("CCCCc1n[nH]c(C(=O)OC)c1Cc1ccc(-c2ccccc2-c2nsc(=O)[nH]2)cc1 [compound 3]")
17

// moving on: another record for inhibition at 1 µM
The reported value for CCCCc1nn(-c2ccccc2Cl)c(C(=O)O)c1Cc1ccc(-c2ccccc2-c2nsc(=O)[nH]2)cc1 [compound 8] in terms of inhibition at 1 µM is 37
